Biological target: Human recombinant MMP-14 (Homo sapiens, UniProt P50281)
Construct: The catalytic domain enzyme was expressed in E. Coli inclusion bodies
Assay: In vitro MMP inhibition analysis (fluorogenic peptide substrate), MMP-14
Details: human recombinant catalytic domain; 4 μM substrate (A); apparent Ki without substrate correction
pKi: −log10 of the molar value.
measure name: pKi

CCc1ccc(-c2nc3ccc(S(=O)(=O)C4(C(=O)NO)CCOCC4)cc3s2)cc1 [Example 58] :: 5.60

A: CCCCOc1ccc(-c2ccc(S(=O)(=O)C3(C(=O)NO)CCOCC3)s2)cc1 [Example 43]
B: O=C(NO)C1(S(=O)(=O)c2ccc3nc(-c4ccc(OC(F)(F)F)cc4)sc3c2)CCOCC1 [Example 51]
C: O=C(NO)C1(S(=O)(=O)c2ccc(-c3ccc(CCC(F)(F)C(F)(F)F)cn3)s2)CCOCC1 [Example 49]
Task: Could you please sort these 3 entries by pKi from high to low? Give me the labels in the order the question wants.
Result: A, B, C
(A: 6.33, B: 5.48, C: 5.03)

Value source: patent US20040142979A1
